- experimental target: ABCG2 (Rattus norvegicus)
- Sequence (Q80W57 whole entry): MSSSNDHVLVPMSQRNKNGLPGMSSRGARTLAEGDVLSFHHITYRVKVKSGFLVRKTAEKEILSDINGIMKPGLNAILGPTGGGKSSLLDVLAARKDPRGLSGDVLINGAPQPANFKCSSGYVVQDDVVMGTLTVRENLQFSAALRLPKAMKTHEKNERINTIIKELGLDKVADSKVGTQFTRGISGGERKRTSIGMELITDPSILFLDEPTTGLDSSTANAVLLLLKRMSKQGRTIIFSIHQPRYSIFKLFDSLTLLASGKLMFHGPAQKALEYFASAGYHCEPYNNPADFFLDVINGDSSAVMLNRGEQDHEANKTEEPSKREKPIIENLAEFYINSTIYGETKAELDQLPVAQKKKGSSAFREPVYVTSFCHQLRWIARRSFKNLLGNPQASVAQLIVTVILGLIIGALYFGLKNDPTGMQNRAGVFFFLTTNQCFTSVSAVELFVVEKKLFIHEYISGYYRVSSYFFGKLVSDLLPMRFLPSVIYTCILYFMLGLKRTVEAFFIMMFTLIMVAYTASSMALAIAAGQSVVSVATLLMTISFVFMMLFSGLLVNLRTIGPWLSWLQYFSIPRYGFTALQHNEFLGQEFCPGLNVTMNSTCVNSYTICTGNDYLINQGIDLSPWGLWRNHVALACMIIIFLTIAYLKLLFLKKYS
property name: IC50

Input line: IC50 for Cc1cn(-c2cc(NC(=O)c3ccc(C)c(Nc4nccc(-c5cccnc5)n4)c3)cc(C(F)(F)F)c2)cn1 [Tasigna] ?
Output line: 93.2 nM

All values here come from paper PMC3148428.
